experiment: Potentiometric logP determination (Sirius T3); type: physicochemical; conditions: n-octanol/ISA water biphasic system, read-out: explogP
observedProperty: logP
Keep it simple and answer with nothing but the number.

Worked set:
O=C(NCc1ccccn1)c1nn[nH]c1-c1ccc(F)cc1 [VIS597 (21)]    2
O=C(Nc1nnc(-c2ccc(Cl)cc2)o1)C1CC1 [VIS572 (19)]    2.1
NC(=O)C1CCN(c2ccc3cccc(O)c3n2)CC1 [VIS580 (20)]    1.9

Turning now to a further record.
Challenge: Recorded logP of O=C(/C=C/c1ccco1)c1ccc(O)cc1 [VIS574 (22)] , please.
Response given: 2.6

---

experiment: Potentiometric pKa determination (Sirius T3); type: physicochemical; settings: Sirius T3, Yasuda-Shedlovsky extrapolation to 0% methanol; first or only value
// reported exppKa per item
Give the figure only, with no unit attached.

O=C(NCc1ccccn1)c1nn[nH]c1-c1ccc(F)cc1    3.9
OC(CC1c2ccccc2-c2cncn21)C1CCCCC1 (centres unmarked) [compound 10, NLG919 analogue, reference compound]    6.7
O=C(/C=C/c1ccco1)c1ccc(O)cc1    7.8
O=C(Nc1nnc(-c2ccc(Cl)cc2)o1)C1CC1    8.1

Now let's try a different one.
Challenge: What value of exppKa has been recorded for this entry: "NC(=O)C1CCN(c2ccc3cccc(O)c3n2)CC1"
Response given: 5.7

---

target: recombinant human IDO1 (rhIDO1) (Homo sapiens); experiment: Full-point MST binding assay against labelled rhIDO1
Sequence (P14902 whole entry): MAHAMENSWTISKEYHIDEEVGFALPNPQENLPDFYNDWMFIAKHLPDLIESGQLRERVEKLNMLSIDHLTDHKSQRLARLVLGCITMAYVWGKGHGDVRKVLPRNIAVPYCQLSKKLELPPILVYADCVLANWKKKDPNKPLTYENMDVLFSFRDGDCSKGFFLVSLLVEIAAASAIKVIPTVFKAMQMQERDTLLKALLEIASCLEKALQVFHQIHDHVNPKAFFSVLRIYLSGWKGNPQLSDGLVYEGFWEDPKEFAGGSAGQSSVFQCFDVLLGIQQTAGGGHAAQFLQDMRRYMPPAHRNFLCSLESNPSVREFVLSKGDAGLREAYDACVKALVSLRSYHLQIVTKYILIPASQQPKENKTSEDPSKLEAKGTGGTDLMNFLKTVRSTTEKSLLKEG
Recorded pKd, one value per entry.
Quick note: pKd means taking -log10 of the concentration in moles per liter.

Would you please look over these solved cases?
CN(C(=O)Nc1c[nH]c2ccccc12)c1ccccc1    4.23
NC(=O)C1CCN(c2ccc3cccc(O)c3n2)CC1    4.09
O=C1Nc2ccccc2/C1=C/C(=O)c1ccccc1    4.43

Challenge: Can you look up the measured pKd of "O=C(/C=C/c1ccco1)c1ccc(O)cc1" for me?
Response given: 4.43

Challenge: Next record, please: "O=C(NCc1ccccn1)c1nn[nH]c1-c1ccc(F)cc1"
Response given: 4.14

Challenge: One more compound: "O=C(Nc1nnc(-c2ccc(Cl)cc2)o1)C1CC1"
Response given: 4.28

Challenge: Similarly, "O=C(NC1CCC(F)(F)CC1)c1ccc2cc[nH]c2c1" ?
Response given: 5.32
